Test system Acetylcholinesterase (Homo sapiens, UniProt P22303), pIC50 listed for each of the molecules.
The read-out pIC50 is expressed as -log10 of concentration in moles per litre.

Ask: Provide measured pIC50 on Acetylcholinesterase (Homo sapiens, UniProt P22303) for O=C(CCO[N+](=O)[O-])NCCCNc1c2c(nc3ccccc13)CCCC2 please.
Sequence (P22303 whole entry): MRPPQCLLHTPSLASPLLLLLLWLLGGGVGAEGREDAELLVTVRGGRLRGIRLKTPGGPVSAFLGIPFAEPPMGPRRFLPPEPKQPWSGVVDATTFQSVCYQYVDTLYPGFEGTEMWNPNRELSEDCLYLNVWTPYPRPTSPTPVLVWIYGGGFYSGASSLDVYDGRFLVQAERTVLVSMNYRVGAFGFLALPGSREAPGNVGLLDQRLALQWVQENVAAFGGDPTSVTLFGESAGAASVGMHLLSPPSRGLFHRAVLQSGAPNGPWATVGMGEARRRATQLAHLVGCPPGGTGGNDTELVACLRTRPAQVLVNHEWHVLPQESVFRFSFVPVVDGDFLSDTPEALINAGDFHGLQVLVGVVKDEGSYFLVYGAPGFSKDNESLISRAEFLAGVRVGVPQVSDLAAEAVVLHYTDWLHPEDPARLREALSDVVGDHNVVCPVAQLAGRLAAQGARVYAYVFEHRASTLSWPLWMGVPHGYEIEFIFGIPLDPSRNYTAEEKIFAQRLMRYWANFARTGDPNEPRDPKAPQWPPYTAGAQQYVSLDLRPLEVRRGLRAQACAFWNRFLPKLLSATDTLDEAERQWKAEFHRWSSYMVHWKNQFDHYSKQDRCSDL
Reply: 7.03

Ask: Check Acetylcholinesterase (Homo sapiens, UniProt P22303) data and give pIC50 for O=[N+]([O-])OCCCNCCCNc1c2c(nc3ccccc13)CCCC2 .
Reply: 8.19

Ask: Report the value of pIC50 obtained on Acetylcholinesterase (Homo sapiens, UniProt P22303) for CC(C)(C)C(=O)NCCCCNc1c2c(nc3ccccc13)CCCC2 .
Reply: 7.67

Ask: GET pIC50 where system = Acetylcholinesterase (Homo sapiens, UniProt P22303) and item = O=C(CCO[N+](=O)[O-])NCCCCNc1c2c(nc3ccccc13)CCCC2
Reply: 7.34

Ask: GET pIC50 where system = Acetylcholinesterase (Homo sapiens, UniProt P22303) and item = O=[N+]([O-])OCCCNCCCCNc1c2c(nc3ccccc13)CCCC2
Reply: 8.25

Ask: Would you please give the reported pIC50 of O=[N+]([O-])OCCNCCCCNc1c2c(nc3ccccc13)CCCC2 with Acetylcholinesterase (Homo sapiens, UniProt P22303)?
Reply: 7.95

Ask: With Acetylcholinesterase (Homo sapiens, UniProt P22303) as the test system, provide measured pIC50 for this molecule: O=[N+]([O-])OCCNCCCNc1c2c(nc3ccccc13)CCCC2
Reply: 8.00

====

// each record: one item and its pIC50 for Acetylcholinesterase (Homo sapiens)
API: returns pIC50 as number; meaning -log10 of concentration in mol/L.

These recorded examples may help you get a feel for the data.
{"smiles-notation": "O=C(CO[N+](=O)[O-])NCCCCNc1c2c(nc3ccccc13)CCCC2", "property-measured": "pIC50", "result-value": 7.65}
{"smiles-notation": "CC(C)(CO[N+](=O)[O-])C(=O)NCCCCNc1c2c(nc3ccccc13)CCCC2", "property-measured": "pIC50", "result-value": 6.65}
{"smiles-notation": "CC(C)(CO[N+](=O)[O-])C(=O)NCCCNc1c2c(nc3ccccc13)CCCC2", "property-measured": "pIC50", "result-value": 7.16}
{"smiles-notation": "O=[N+]([O-])OCCCCCCNCCCCNc1c2c(nc3ccccc13)CCCC2", "property-measured": "pIC50", "result-value": 7.74}

Ask: Report the value of pIC50 obtained on Acetylcholinesterase (Homo sapiens) for O=C(CO/N=[N+](\[O-])N1CCCC1)NCCCCNc1c2c(nc3ccccc13)CCCC2 .
Reply: 7.29

====

target: Cholinesterase (Homo sapiens)
property-measured: IC50 (nM)
A number alone suffices; assume nM.

Use these answered entries as a reference point.
{"smiles-notation": "O=C(CCO[N+](=O)[O-])NCCCCNc1c2c(nc3ccccc13)CCCC2", "study-target": "Cholinesterase (Homo sapiens)", "IC50 / nM": 15.1}
{"smiles-notation": "O=C(CCO[N+](=O)[O-])NCCCNc1c2c(nc3ccccc13)CCCC2", "study-target": "Cholinesterase (Homo sapiens)", "IC50 / nM": 28}
{"smiles-notation": "CC(C)(CO[N+](=O)[O-])C(=O)NCCCCNc1c2c(nc3ccccc13)CCCC2", "study-target": "Cholinesterase (Homo sapiens)", "IC50 / nM": 7.3}
{"smiles-notation": "O=C(CO/N=[N+](\\[O-])N1CCCC1)NCCCCNc1c2c(nc3ccccc13)CCCC2", "study-target": "Cholinesterase (Homo sapiens)", "IC50 / nM": 41}

# input for lookup
Ask: For O=[N+]([O-])OCCCCCCNCCCCNc1c2c(nc3ccccc13)CCCC2 , write its IC50.
Reply: 10.8

====

target: Cholinesterase (Homo sapiens, UniProt P06276)
Sequence (P06276 whole entry): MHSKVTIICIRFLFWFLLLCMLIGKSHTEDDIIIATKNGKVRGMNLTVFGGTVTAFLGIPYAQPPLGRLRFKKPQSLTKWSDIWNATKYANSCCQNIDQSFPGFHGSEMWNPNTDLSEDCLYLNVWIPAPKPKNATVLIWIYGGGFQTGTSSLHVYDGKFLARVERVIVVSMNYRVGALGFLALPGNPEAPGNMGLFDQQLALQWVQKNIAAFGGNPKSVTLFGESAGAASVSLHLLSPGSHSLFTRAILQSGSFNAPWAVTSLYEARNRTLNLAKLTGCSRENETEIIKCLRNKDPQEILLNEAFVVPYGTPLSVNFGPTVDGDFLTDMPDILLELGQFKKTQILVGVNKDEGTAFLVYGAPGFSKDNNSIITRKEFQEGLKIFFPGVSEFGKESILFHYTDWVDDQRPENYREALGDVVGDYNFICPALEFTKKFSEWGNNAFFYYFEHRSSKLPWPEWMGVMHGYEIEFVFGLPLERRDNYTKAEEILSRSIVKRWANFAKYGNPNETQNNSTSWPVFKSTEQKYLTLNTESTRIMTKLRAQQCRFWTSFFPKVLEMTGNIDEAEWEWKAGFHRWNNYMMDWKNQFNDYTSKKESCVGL
pIC50: −log10 of the molar value.
Class condition met: pIC50 at least 8. Class condition not met: pIC50 below 8.

{"smiles-notation": "O=[N+]([O-])OCCCNCCCNc1c2c(nc3ccccc13)CCCC2", "study-target": "Cholinesterase (Homo sapiens, UniProt P06276)", "group-label": "condition met"}

Shift focus to the following entry.
Ask: Does O=[N+]([O-])OCCCCCCNCCCNc1c2c(nc3ccccc13)CCCC2 have a reported pIC50 of at least 8?
Reply: condition not met

====

Catalogue of compounds with associated pEC50
tested on: Artery; test: tissue or blood; details: Sus scrofa
Description: Vasorelaxation activity in PGF2-alpha-precontracted pig pulmonary artery
Scale note: pEC50 = -log10(concentration in M).

Guide cases for pEC50, answers given:
{"compound": "O=C(CO/N=[N+](\\[O-])N1CCCC1)NCCCNc1c2c(nc3ccccc13)CCCC2", "study-target": "Artery", "property-measured": "pEC50", "result-value": 4.65}
{"compound": "O=C(CO[N+](=O)[O-])NCCCNc1c2c(nc3ccccc13)CCCC2", "study-target": "Artery", "property-measured": "pEC50", "result-value": 5.43}
{"compound": "CC(C)(CO[N+](=O)[O-])C(=O)NCCCCNc1c2c(nc3ccccc13)CCCC2", "study-target": "Artery", "property-measured": "pEC50", "result-value": 4.98}

Ask: State its pEC50 for this compound: O=[N+]([O-])O[C@H]1CO[C@H]2[C@@H]1OC[C@H]2O[N+](=O)[O-] [ISOSORBIDE DINITRATE]
Reply: 6.38

Ask: Write down pEC50 measured for item O=[N+]([O-])OCCCNCCCCNc1c2c(nc3ccccc13)CCCC2
Reply: 5.06

====

# pIC50 annotations
molecular target: Cholinesterase (Homo sapiens, UniProt P06276)
pIC50 is a log-scale quantity: -log10 of the concentration expressed in molar.

Examples from the recorded data:
{"smiles-notation": "O=C(CO[N+](=O)[O-])NCCCCNc1c2c(nc3ccccc13)CCCC2", "property-measured": "pIC50", "result-value": 7.92}
{"smiles-notation": "CC(C)(CO[N+](=O)[O-])C(=O)NCCCNc1c2c(nc3ccccc13)CCCC2", "property-measured": "pIC50", "result-value": 8.26}
{"smiles-notation": "CC(C)(C)C(=O)NCCCCNc1c2c(nc3ccccc13)CCCC2", "property-measured": "pIC50", "result-value": 7.44}

Ask: Fetch value of pIC50 on Cholinesterase (Homo sapiens, UniProt P06276) for O=[N+]([O-])OCCNCCCNc1c2c(nc3ccccc13)CCCC2 .
Reply: 8.28

Ask: Return reported pIC50 for target or system Cholinesterase (Homo sapiens, UniProt P06276), item O=C(CO[N+](=O)[O-])NCCCNc1c2c(nc3ccccc13)CCCC2 .
Reply: 7.87

====

Consider compounds characterized by their pIC50 with Acetylcholinesterase (Homo sapiens).
Would you please state pIC50, meaning minus log10 of the concentration in mol/L, as a bare number?

{"smiles-notation": "O=C(CO[N+](=O)[O-])NCCCNc1c2c(nc3ccccc13)CCCC2", "pIC50": 7.55}
{"smiles-notation": "O=C(CO/N=[N+](\\[O-])N1CCCC1)NCCCNc1c2c(nc3ccccc13)CCCC2", "pIC50": 7.45}

Now let's try a different one.
Ask: Give pIC50 for this entry on Acetylcholinesterase (Homo sapiens): O=[N+]([O-])OCCCCCCNCCCNc1c2c(nc3ccccc13)CCCC2
Reply: 8.20

====

Observed pIC50, system Cholinesterase (Homo sapiens).
FYI, pIC50 means -log10 of a concentration in mol per litre.

Guide cases for pIC50, answers given:
{"smiles-notation": "O=[N+]([O-])OCCNCCCCNc1c2c(nc3ccccc13)CCCC2", "study-target": "Cholinesterase (Homo sapiens)", "result-value": 7.86}
{"smiles-notation": "O=C(CO/N=[N+](\\[O-])N1CCCC1)NCCCNc1c2c(nc3ccccc13)CCCC2", "study-target": "Cholinesterase (Homo sapiens)", "result-value": 7.82}

Kindly review the next compound as well.
Ask: Tell me its pIC50 on Cholinesterase (Homo sapiens): O=[N+]([O-])OCCCNCCCCNc1c2c(nc3ccccc13)CCCC2
Reply: 8.00
